Origin of measurements: patent US20230405028A1

System: Human primary small intestinal epithelial cells (HSIEC)
Details: 10 μM; 24 h
Checkbox rule: Cellular Metabolic Activity lower than 0.07 = fulfilled; Cellular Metabolic Activity not lower than 0.07 = not fulfilled.

CN(C)CCc1c[nH]c2cccc(OP(=O)(O)O)c12 [psilocybin, reference compound] = not fulfilled

Incoming: A record lists COc1cc(CNC(=O)CCCC/C=C/C(C)C)ccc1O [capsaicin] . Is its Cellular Metabolic Activity below 0.07?
Outgoing: not fulfilled

Incoming: Problem: For the compound C=CCc1ccc(O)c(OC)c1 [eugenol] , is Cellular Metabolic Activity under 0.07?
Outgoing: fulfilled

Incoming: Please let me know if O=C/C=C/c1ccccc1 [cinnamaldehyde, (2E)-3-phenylprop-2-enal] shows Cellular Metabolic Activity below 0.07.
Outgoing: not fulfilled

Incoming: Quick check: does O=C(/C=C/C=C/c1ccc2c(c1)OCO2)N1CCCCC1 [piperine] have Cellular Metabolic Activity under 0.07?
Outgoing: not fulfilled

====

Listing: Cellular Metabolic Activity of selected compounds
Test system: Human primary small intestinal epithelial cells (HSIEC)
Conditions: 100 μM; 96 h
# answer = number (no unit)

COc1cc(CNC(=O)CCCC/C=C/C(C)C)ccc1O = 0.623
C=CCc1ccc(O)c(OC)c1 = 0.662
Cc1ccc(C(C)C)cc1O = 0.397

# input for lookup
Incoming: Determine from records and report Cellular Metabolic Activity for O=C(/C=C/C=C/c1ccc2c(c1)OCO2)N1CCCCC1
Outgoing: 0.410

====

Tested on: Human primary small intestinal epithelial cells (HSIEC)
Conditions: 80 μM; 24 h
Assign labels as follows, please: fulfilled for Cellular Metabolic Activity below 0.2; not fulfilled for Cellular Metabolic Activity equal to or exceeding 0.2.

Cc1ccc(C(C)C)cc1O = fulfilled
COc1cc(/C=C/C(=O)CC(=O)/C=C/c2ccc(O)c(OC)c2)ccc1O = fulfilled

Incoming: Report whether reported Cellular Metabolic Activity is lower than 0.2 (strictly) for O=C/C=C/c1ccccc1
Outgoing: fulfilled

Incoming: Item O=C(/C=C/C=C/c1ccc2c(c1)OCO2)N1CCCCC1 : Cellular Metabolic Activity beneath 0.2, strictly?
Outgoing: fulfilled

Incoming: Lab note: Cellular Metabolic Activity threshold 0.2. Does this molecule come in strictly under it? CN(C)CCc1c[nH]c2cccc(OP(=O)(O)O)c12 [psilocybin, reference compound]
Outgoing: not fulfilled

====

System: Human primary small intestinal epithelial cells (HSIEC)
Conditions: 40 μM; 48 h
# Cellular Metabolic Activity values compiled below
# answer = number (no unit)

Guide cases for Cellular Metabolic Activity, answers given:
COc1cc(/C=C/C(=O)CC(=O)/C=C/c2ccc(O)c(OC)c2)ccc1O = 0.026
CN(C)CCc1c[nH]c2cccc(OP(=O)(O)O)c12 [psilocybin, reference compound] = 0.259
O=C/C=C/c1ccccc1 = 0.049
O=C(/C=C/C=C/c1ccc2c(c1)OCO2)N1CCCCC1 = 0.169

Incoming: State the measured Cellular Metabolic Activity (Human primary small intestinal epithelial cells (HSIEC)) of Cc1ccc(C(C)C)cc1O
Outgoing: 0.159

====

System: Human primary small intestinal epithelial cells (HSIEC)
Conditions: 5 μM; 96 h
Kindly return condition met if reported Cellular Metabolic Activity is no lower than 0.5; return condition not met if it is lower.

Recorded results for 4 molecules are shown here.
COc1cc(CNC(=O)CCCC/C=C/C(C)C)ccc1O = condition not met
O=C(/C=C/C=C/c1ccc2c(c1)OCO2)N1CCCCC1 = condition met
CN(C)CCc1c[nH]c2cccc(OP(=O)(O)O)c12 [psilocybin, reference compound] = condition met
O=C/C=C/c1ccccc1 = condition not met

Turning now to a further molecule:
Incoming: Say whether COc1cc(/C=C/C(=O)CC(=O)/C=C/c2ccc(O)c(OC)c2)ccc1O shows Cellular Metabolic Activity of 0.5 or more.
Outgoing: condition met

====

Test system: Human primary small intestinal epithelial cells (HSIEC)
Details: 20 μM; 96 h
# if value of Cellular Metabolic Activity reaches 0.2, tag 1; if it stays below, tag 0

O=C(/C=C/C=C/c1ccc2c(c1)OCO2)N1CCCCC1 = 1
COc1cc(/C=C/C(=O)CC(=O)/C=C/c2ccc(O)c(OC)c2)ccc1O = 0
Cc1ccc(C(C)C)cc1O = 1
CN(C)CCc1c[nH]c2cccc(OP(=O)(O)O)c12 [psilocybin, reference compound] = 1

Incoming: Is reported Cellular Metabolic Activity greater than or equal to 0.2 here: O=C/C=C/c1ccccc1
Outgoing: 0

====

Measured Cellular Metabolic Activity, listed per entry.
System: Human primary small intestinal epithelial cells (HSIEC)
Settings: 80 μM; 96 h
Give a plain numeric answer without units written out.

COc1cc(/C=C/C(=O)CC(=O)/C=C/c2ccc(O)c(OC)c2)ccc1O = 0.005
Cc1ccc(C(C)C)cc1O = 0.423
O=C(/C=C/C=C/c1ccc2c(c1)OCO2)N1CCCCC1 = 0.391

We next turn to a different compound, shown below.
Incoming: Given the compound CN(C)CCc1c[nH]c2cccc(OP(=O)(O)O)c12 [psilocybin, reference compound] , write its reported Cellular Metabolic Activity.
Outgoing: 0.805

====

System: Human primary small intestinal epithelial cells (HSIEC)
Conditions: 5 μM; time 0
Output Y for records whose Cellular Metabolic Activity is lower than 0.04, N for records at or above 0.04.

Sample answers from the record:
Cc1ccc(C(C)C)cc1O [carvacrol] = Y
COc1cc(CNC(=O)CCCC/C=C/C(C)C)ccc1O [capsaicin] = N
O=C/C=C/c1ccccc1 [cinnamaldehyde, (2E)-3-phenylprop-2-enal] = Y
COc1cc(/C=C/C(=O)CC(=O)/C=C/c2ccc(O)c(OC)c2)ccc1O [curcumin] = Y
O=C(/C=C/C=C/c1ccc2c(c1)OCO2)N1CCCCC1 [piperine] = Y

Now let's try a different one.
Incoming: Quick check: Cellular Metabolic Activity of CN(C)CCc1c[nH]c2cccc(OP(=O)(O)O)c12 [psilocybin, reference compound] under 0.04?
Outgoing: N

====

Tested on: Human primary small intestinal epithelial cells (HSIEC)
Conditions: 400 μM; 24 h
quantity.kind: Cellular Metabolic Activity
Form field (numeric): enter value without unit.

COc1cc(CNC(=O)CCCC/C=C/C(C)C)ccc1O = 0.016
Cc1ccc(C(C)C)cc1O = 0.062
O=C(/C=C/C=C/c1ccc2c(c1)OCO2)N1CCCCC1 = 0.068

Consider the additional molecule presented here.
Incoming: # return recorded Cellular Metabolic Activity for entry C=CCc1ccc(O)c(OC)c1
Outgoing: 0.059

====

Test system: Human primary small intestinal epithelial cells (HSIEC)
Conditions: 100 μM; 72 h
quantity.kind: Cellular Metabolic Activity
Hey, just send me the number, nothing else.

Please review the entries below; each comes with its answer.
O=C(/C=C/C=C/c1ccc2c(c1)OCO2)N1CCCCC1 [piperine] = 0.248
C=CCc1ccc(O)c(OC)c1 [eugenol] = 0.346
Cc1ccc(C(C)C)cc1O [carvacrol] = 0.259

Attention now turns to another entry.
Incoming: Respond only with Cellular Metabolic Activity recorded for COc1cc(CNC(=O)CCCC/C=C/C(C)C)ccc1O [capsaicin]
Outgoing: 0.272

====

Measured Cellular Metabolic Activity by item
System: Human primary small intestinal epithelial cells (HSIEC)
Settings: 400 μM; 96 h
Answer with the value's number alone.

Here is how some molecules turned out for Cellular Metabolic Activity.
Cc1ccc(C(C)C)cc1O = 0.137
C=CCc1ccc(O)c(OC)c1 = 0.549
COc1cc(CNC(=O)CCCC/C=C/C(C)C)ccc1O = 0.018

Next up:
Incoming: Input O=C(/C=C/C=C/c1ccc2c(c1)OCO2)N1CCCCC1 , output reported Cellular Metabolic Activity.
Outgoing: 0.255

====

Tested on: Human primary small intestinal epithelial cells (HSIEC)
Conditions: 400 μM; time 0
Cellular Metabolic Activity for assorted molecules
Write the number on its own, no unit after it.

Some entries whose results are on file:
O=C(/C=C/C=C/c1ccc2c(c1)OCO2)N1CCCCC1 = 0.031
COc1cc(CNC(=O)CCCC/C=C/C(C)C)ccc1O = 0.039
Cc1ccc(C(C)C)cc1O = 0.027

Next molecule, please.
Incoming: Return reported Cellular Metabolic Activity. Input molecule: C=CCc1ccc(O)c(OC)c1
Outgoing: 0.042

====

Test system: Human primary small intestinal epithelial cells (HSIEC)
Conditions: 20 μM; time 0
Catalogue of Cellular Metabolic Activity readings, one per entry.

Observe how each entry below is paired with its result.
O=C(/C=C/C=C/c1ccc2c(c1)OCO2)N1CCCCC1 [piperine] = 0.022
Cc1ccc(C(C)C)cc1O [carvacrol] = 0.022
O=C/C=C/c1ccccc1 [cinnamaldehyde, (2E)-3-phenylprop-2-enal] = 0.025

Incoming: Item COc1cc(/C=C/C(=O)CC(=O)/C=C/c2ccc(O)c(OC)c2)ccc1O [curcumin] : provide Cellular Metabolic Activity
Outgoing: 0.040

Incoming: Let me know recorded Cellular Metabolic Activity for CN(C)CCc1c[nH]c2cccc(OP(=O)(O)O)c12 [psilocybin, reference compound] , thanks.
Outgoing: 0.038

====

Tested on: Human primary small intestinal epithelial cells (HSIEC)
Details: 20 μM; 48 h
Flag rule - Cellular Metabolic Activity less than 0.2 flags yes (1); the remaining entries get no (0).

Solved entries:
O=C(/C=C/C=C/c1ccc2c(c1)OCO2)N1CCCCC1 = yes (1)
Cc1ccc(C(C)C)cc1O = yes (1)
COc1cc(/C=C/C(=O)CC(=O)/C=C/c2ccc(O)c(OC)c2)ccc1O = yes (1)
O=C/C=C/c1ccccc1 = yes (1)

Incoming: I'd appreciate it if you could check whether CN(C)CCc1c[nH]c2cccc(OP(=O)(O)O)c12 [psilocybin, reference compound] has Cellular Metabolic Activity smaller than 0.2.
Outgoing: no (0)
